// provenance: paper PMC7279249

Tested on: P. aeruginosa (KCTC 1637)
Details: KCTC 1637, 18 h
Peptide text beside a SMILES is read from it.
Endpoint Name: MIC, P. aeruginosa (KCTC 1637)

>>> assay_value("CC(=O)N[C@@H](Cc1c[nH]c2ccccc12)C(=O)N[C@@H](CCCCN)C(=O)N[C@@H](Cc1c[nH]c2ccccc12)C(N)=O [BJK-9] (Ac-Trp-Lys-Trp-NH2)")
">128 µg/mL"
>>> assay_value("CC(=O)N[C@@H](CCCCN)C(=O)N[C@@H](Cc1c[nH]c2ccccc12)C(N)=O [BJK-7] (Ac-Lys-Trp-NH2)")
"128 µg/mL"
>>> assay_value("CC(=O)NCCNc1nc(NCC(=O)NCCNc2nc(NCC(=O)NCCNc3nc(NCC(N)=O)nc(N(CCCN)CCCN)n3)nc(N(Cc3ccccc3)Cc3ccccc3)n2)nc(N(CCCN)CCCN)n1")
"16 µg/mL"
>>> assay_value("CC(=O)NCCNc1nc(NCC(N)=O)nc(N(Cc2ccccc2)Cc2ccccc2)n1")
">128 µg/mL"
>>> assay_value("CC(=O)NCCNc1nc(NCC(N)=O)nc(N(CCCN)CCCN)n1")
"128 µg/mL"
>>> assay_value("CC(=O)NCCNc1nc(NCC(=O)NCCNc2nc(NCC(N)=O)nc(N(Cc3ccccc3)Cc3ccccc3)n2)nc(N(CCCN)CCCN)n1")
"32 µg/mL"
>>> assay_value("CC(=O)N[C@@H](CCCCN)C(=O)N[C@@H](Cc1c[nH]c2ccccc12)C(=O)N[C@@H](CCCCN)C(N)=O [BJK-8] (Ac-Lys-Trp-Lys-NH2)")
"128 µg/mL"
>>> assay_value("CC(=O)NCCNc1nc(NCC(=O)NCCNc2nc(NCC(=O)NCCNc3nc(NCC(N)=O)nc(N(Cc4ccccc4)Cc4ccccc4)n3)nc(N(CCCN)CCCN)n2)nc(N(Cc2ccccc2)Cc2ccccc2)n1")
"32 µg/mL"

* * *

Assay: Analytical RP-HPLC retention time
Format: physicochemical
Details: C18 4.6 mm × 250 mm, 0.05% aq. TFA (A) / 0.05% TFA in CH3CN (B), 5% to 95% B in 30 min, 1.0 mL/min, 25 °C, 280 nm, method A of the Supplementary Material
Peptide text beside a SMILES is read from it.
Endpoint Name: Rt, HPLC retention time (min)

>>> assay_value("CC(=O)NCCNc1nc(NCC(=O)NCCNc2nc(NCC(=O)NCCNc3nc(NCC(N)=O)nc(N(Cc4ccccc4)Cc4ccccc4)n3)nc(N(CCCN)CCCN)n2)nc(N(Cc2ccccc2)Cc2ccccc2)n1")
21.1
>>> assay_value("CC(=O)NCCNc1nc(NCC(N)=O)nc(N(Cc2ccccc2)Cc2ccccc2)n1")
21.8
>>> assay_value("CC(=O)N[C@@H](CCCCN)C(=O)N[C@@H](Cc1c[nH]c2ccccc12)C(N)=O [BJK-7] (Ac-Lys-Trp-NH2)")
15.4
>>> assay_value("CC(=O)NCCNc1nc(NCC(N)=O)nc(N(CCCN)CCCN)n1")
8.8
>>> assay_value("CC(=O)N[C@@H](Cc1c[nH]c2ccccc12)C(=O)N[C@@H](CCCCN)C(=O)N[C@@H](Cc1c[nH]c2ccccc12)C(N)=O [BJK-9] (Ac-Trp-Lys-Trp-NH2)")
19.6
>>> assay_value("CC(=O)N[C@@H](CCCCN)C(=O)N[C@@H](Cc1c[nH]c2ccccc12)C(=O)N[C@@H](CCCCN)C(N)=O [BJK-8] (Ac-Lys-Trp-Lys-NH2)")
14.2
>>> assay_value("CC(=O)N[C@@H](CCCCN)C(=O)N[C@@H](Cc1c[nH]c2ccccc12)C(=O)N[C@@H](CCCCN)C(=O)N[C@@H](Cc1c[nH]c2ccccc12)C(N)=O [BJK-10] (Ac-KWKW-NH2)")
17.9
